Attribution: paper PMC6602471

Can you tell me binding signal for the items I'm about to list?
Target: ELK1 (Homo sapiens, UniProt P19419 1-428)
Sequence: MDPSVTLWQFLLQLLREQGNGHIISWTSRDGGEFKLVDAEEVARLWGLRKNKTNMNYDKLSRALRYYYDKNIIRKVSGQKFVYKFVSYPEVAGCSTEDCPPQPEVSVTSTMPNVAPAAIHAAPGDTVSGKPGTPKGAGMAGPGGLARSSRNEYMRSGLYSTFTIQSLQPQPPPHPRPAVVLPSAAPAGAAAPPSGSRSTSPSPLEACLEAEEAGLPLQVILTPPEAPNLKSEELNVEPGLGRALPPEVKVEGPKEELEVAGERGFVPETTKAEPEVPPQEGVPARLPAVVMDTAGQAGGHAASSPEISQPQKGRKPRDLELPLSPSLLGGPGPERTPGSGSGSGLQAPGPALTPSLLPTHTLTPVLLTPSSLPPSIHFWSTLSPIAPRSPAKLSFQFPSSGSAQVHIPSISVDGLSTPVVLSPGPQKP
Assay: custom PBM; custom protein-binding microarray; buffer, salt, pH and temperature not stated; high values mean tight binding
Details: dsDNA, one strand shown
Whole data set: some 1,300 sequences, median “log fluorescence intensity” near 8.9, cut for the highest 2% near 13. For the sample, the highest values were picked, then their nearest neighbours and some sequences at random.

q: Return binding signal for the following sequence: CGGGGACTTGACCCAACTCTGCCACGTGGGTCGTTTGTCTTGATTCGCTTGACGCTGCTG
a: 8.96 log fluorescence intensity

q: Consider the sequence CGGAAGTGTCGTAAACGGCGGATATCCGGTTCTTCTGTCTTGATTCGCTTGACGCTGCTG and give its recorded binding signal.
a: 12.6 log fluorescence intensity

q: Determine from records and report binding signal for TAAAGGGAAGACGGTTGTGGTAGTTCCGGGAATTAAGTCTTGATTCGCTTGACGCTGCTG
a: 11.2 log fluorescence intensity

q: Give the value of binding signal reported for the following: CGGAAGTGTCGTAAACGTCTGATATCCGGTTCTTCTGTCTTGATTCGCTTGACGCTGCTG
a: 11.1 log fluorescence intensity

q: Please indicate binding signal recorded for TATTAATTTCTGCCCTTATTCGCACGTGCCATAACAGTCTTGATTCGCTTGACGCTGCTG
a: 8.91 log fluorescence intensity

q: State, in one line, measured binding signal of TACTGACTTTTATATGCGAATGCACATGAATAGACCGTCTTGATTCGCTTGACGCTGCTG
a: 8.97 log fluorescence intensity

q: Indicate the recorded binding signal value for this sequence: TCCGGCTACCAGCGCCACCCACTTCAGGCCTTGTAGGTCTTGATTCGCTTGACGCTGCTG
a: 8.91 log fluorescence intensity

q: Quick one: give measured binding signal for CAGCATAGGACTTCTTCCCTGAAACAATTGATAACCGTCTTGATTCGCTTGACGCTGCTG
a: 8.97 log fluorescence intensity

q: Output binding signal of CGGAAGTGTCGTAAACGACGGATATCCGGTTCTTCTGTCTTGATTCGCTTGACGCTGCTG
a: 12.7 log fluorescence intensity

----------
Target: ELK1 (Homo sapiens, UniProt P19419 1-428)
Sequence: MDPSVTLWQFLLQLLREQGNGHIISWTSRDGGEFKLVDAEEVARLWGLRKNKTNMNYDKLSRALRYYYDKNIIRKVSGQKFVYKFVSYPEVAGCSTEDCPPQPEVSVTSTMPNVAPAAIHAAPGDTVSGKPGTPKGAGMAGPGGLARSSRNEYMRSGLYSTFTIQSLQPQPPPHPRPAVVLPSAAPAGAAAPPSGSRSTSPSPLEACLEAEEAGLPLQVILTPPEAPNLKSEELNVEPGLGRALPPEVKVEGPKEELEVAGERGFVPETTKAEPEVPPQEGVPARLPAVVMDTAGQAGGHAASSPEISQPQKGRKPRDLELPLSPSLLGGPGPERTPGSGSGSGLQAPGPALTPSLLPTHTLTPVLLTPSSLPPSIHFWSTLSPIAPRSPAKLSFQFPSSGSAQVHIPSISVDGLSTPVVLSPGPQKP
Assay: custom PBM; custom protein-binding microarray; buffer, salt, pH and temperature not stated; high values mean tight binding
Settings: dsDNA, one strand shown
In all, about 1,300 sequences were measured (“log fluorescence intensity”: median about 8.9, highest 2% from about 13 on). The entries come from a sample that favours the highest values as a whole.
Exercise: state measured binding signal for each of the sequences provided.

q: Read off the recorded binding signal for GTGTATGGGATCCCATCCAACACACGTGTTAAAATGGTCTTGATTCGCTTGACGCTGCTG
a: 9.12 log fluorescence intensity

q: Quick one: give measured binding signal for CGGAAGTGACGTAAACGTCGGATATCCGGTTCTTCTGTCTTGATTCGCTTGACGCTGCTG
a: 12.3 log fluorescence intensity

q: Provide one value: measured binding signal of TCCGGCTCCCAGCTCCACCCACTTCAGGCCTTGTAGGTCTTGATTCGCTTGACGCTGCTG
a: 8.92 log fluorescence intensity

q: Tell me binding signal reported for GCTGCTGCGTTGCATACCCCACCGGATGTGACCCCGGTCTTGATTCGCTTGACGCTGCTG
a: 10.1 log fluorescence intensity

q: Look up and report measured binding signal for this entry: GCTGCTGCGGTGCATACCCCACAGGATGTGACCCCGGTCTTGATTCGCTTGACGCTGCTG
a: 9.08 log fluorescence intensity

q: Query binding signal for TGTCGGGTAAGGGAATGTAGATCACGTGAATGACAAGTCTTGATTCGCTTGACGCTGCTG
a: 8.94 log fluorescence intensity

q: Query binding signal for GTGTATAGGATCCCATCCAACACACGGGTTAAAATGGTCTTGATTCGCTTGACGCTGCTG
a: 8.95 log fluorescence intensity

q: Quote binding signal reported for GATTAATATCTGCCCTTATTCGCACGTGCCATAACAGTCTTGATTCGCTTGACGCTGCTG please.
a: 8.95 log fluorescence intensity

q: Dear colleague, please send me the reported binding signal for CGGAAGTGTCGTAAACGTCGGATATCCGGTTGTTCTGTCTTGATTCGCTTGACGCTGCTG when you can.
a: 12.5 log fluorescence intensity

q: For the sequence TAAAGGGAAGACGGTTGTGGTACTTCCGGGTATTAAGTCTTGATTCGCTTGACGCTGCTG , report binding signal.
a: 12 log fluorescence intensity

q: Identify measured binding signal corresponding to TAAAGGGAAGACGGTTGTGGTGGTTCCGGGTATTAAGTCTTGATTCGCTTGACGCTGCTG
a: 11.1 log fluorescence intensity

q: Read the entry GCTGCTGCGGTGCTTACCCCACCGGATGTGACCCCGGTCTTGATTCGCTTGACGCTGCTG and write its reported binding signal.
a: 10.2 log fluorescence intensity

q: Please report the measured binding signal for TAAAGGGAAGACGGTTGTGGTAGTTCCGCGTATTAAGTCTTGATTCGCTTGACGCTGCTG
a: 9.44 log fluorescence intensity

q: Using the record for CGGAAGTGTCGTAAACGTCGGATATCCGGTCCTTCTGTCTTGATTCGCTTGACGCTGCTG , state its measured binding signal.
a: 12.6 log fluorescence intensity

q: Give binding signal for TCCGGTTACCAGCTCCACCCACTTCAGGCCTTGTAGGTCTTGATTCGCTTGACGCTGCTG
a: 8.91 log fluorescence intensity

q: Let me know recorded binding signal for CGGAAGTGTCGTAAACGTCCGATATCCGGTTCTTCTGTCTTGATTCGCTTGACGCTGCTG , thanks.
a: 12.3 log fluorescence intensity
